A collection of compounds and their measured normalized growth
Test: chemical genetic growth profiling, strain panel (AID 1159580);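 also: tested at 20 µM; growth read once vehicle control cultures reached saturation at 30 °C; 1 = growth at the plate median or of vehicle wells; lower values mean less growth of the strain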
Conditions: S. cerevisiae deletion strains, growth OD, locus YOR106W, strain vam3, active compounds read low
In all, about 5,500 compounds went through this assay and about 2,000 (36%) were called active. Roughly 18% stayed inconclusive and do not appear here. This is one part of the list.
Write the number on its own, no unit after it.

compound: C=CCc1ccc(OC)cc1
normalized growth: 0.988
//
compound: CCCCCCCCC(=O)NCc1ccc(O)c(OC)c1
normalized growth: 1

The record that follows has no normalized growth shown yet.
Record CCCCC/C=C/CCC(=O)N[C@H]1[C@H](Oc2c3cc4cc2Oc2ccc(cc2Cl)[C@@H](O[C@@H]2O[C@H](CO)[C@@H](O)[C@H](O)[C@H]2NC(C)=O)[C@@H]2NC(=O)[C@H](NC(=O)[C@@H]4NC(=O)[C@H]4NC(=O)C(Cc5ccc(c(Cl)c5)O3)NC(=O)[C@H](N)c3ccc(O)c(c3)Oc3cc(O)cc4c3)c3ccc(O)c(c3)-c3c(OC4O[C@H](CO)[C@@H](O)[C@H](O)[C@@H]4O)cc(O)cc3[C@@H](C(=O)O)NC2=O)O[C@H](CO)[C@@H](O)[C@@H]1O (stereo partly drawn) . Reported normalized growth: 1.02
